// values below are reported pIC50
target: Human Neutrophil Elastase (Homo sapiens); construct: Human Neutrophil Elastase (FINE) purified from serum (Calbiochem art. 324681); purchased Calbiochem 324681; host or cells: natural enzyme, purified from serum; experiment: Human Neutrophil Elastase Quenched-FRET Assay; format: biochemical; conditions: HNE purified from serum; substrate MeOSuc-AAPV-AMC; 15 min preincubation, 30 min incubation at room temperature; read-out: Inhibition of Human Neutrophil Elastase IC50
Sequence (P08246 30-267): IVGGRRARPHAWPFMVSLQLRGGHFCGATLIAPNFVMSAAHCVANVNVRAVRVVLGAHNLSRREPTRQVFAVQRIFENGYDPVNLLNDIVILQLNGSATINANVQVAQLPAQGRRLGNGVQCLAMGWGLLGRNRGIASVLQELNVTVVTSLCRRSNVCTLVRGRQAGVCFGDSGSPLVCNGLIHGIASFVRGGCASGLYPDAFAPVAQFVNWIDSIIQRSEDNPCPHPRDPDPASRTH
pIC50: −log10 of the molar value.
property-measured: pIC50

compound="Cc1c(-c2ccoc2)cc(C(=O)NCc2ccc(S(C)(=O)=O)cc2)c(=O)n1-c1cccc(C(F)(F)F)c1 [Example 2]" reported=7.34
compound="Cc1noc(C)c1-c1cc(C(=O)NCc2ccc(S(=O)(=O)C(C)C)cc2)c(=O)n(-c2cccc(C(F)(F)F)c2)c1C [Example 32]" reported=8.52
compound="Cc1c(-c2ccccc2)cc(C(=O)NCc2ccc(S(C)(=O)=O)cc2)c(=O)n1-c1cccc(C(F)(F)F)c1 [Example 1]" reported=7.33
compound="Cc1cc(CNC(=O)c2cc(-c3ccnn3C)c(C)n(-c3cccc(C(F)(F)F)c3)c2=O)on1 [Example 91]" reported=7.92
compound="COc1ncc(-c2cc(C(=O)NCc3ccc(S(C)(=O)=O)cc3)c(=O)n(-c3cccc(C(F)(F)F)c3)c2C)cn1 [Example 5]" reported=7.32
compound="Cc1nnc(-c2cc(C(=O)NCc3ccc(S(=O)(=O)C4CC4)cc3)c(=O)n(-c3cccc(C(F)(F)F)c3)c2C)o1 [Example 46]" reported=8.15
